Target chain: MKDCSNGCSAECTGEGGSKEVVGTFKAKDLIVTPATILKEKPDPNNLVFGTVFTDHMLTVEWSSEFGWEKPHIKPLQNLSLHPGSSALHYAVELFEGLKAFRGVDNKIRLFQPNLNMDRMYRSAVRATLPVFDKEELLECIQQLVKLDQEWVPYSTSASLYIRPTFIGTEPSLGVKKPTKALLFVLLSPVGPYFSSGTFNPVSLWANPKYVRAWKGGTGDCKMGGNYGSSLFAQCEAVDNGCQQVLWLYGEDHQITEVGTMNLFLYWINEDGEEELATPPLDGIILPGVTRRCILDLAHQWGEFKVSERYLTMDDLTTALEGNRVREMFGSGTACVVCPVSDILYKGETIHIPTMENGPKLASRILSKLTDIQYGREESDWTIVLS
pIC50: −log10 of the molar value.
Readings of pIC50 for the listed compounds

{"compound": "CC(C)Cc1nc2cnc(-n3nccn3)cc2n1[C@@H]1CCC[C@H](NC(=O)c2ccc(Cl)s2)[C@H]1O [Example 393]", "pIC50": "> 6.30"}
{"compound": "CC(C)Cc1nc2cnc(-c3ncccn3)cc2n1[C@@H]1C[C@@H](O)C[C@H](NC(=O)c2ncc(Cl)s2)C1 (stereo in doubt) [Example 397]", "pIC50": "5.30 to 6.00"}
{"compound": "O=C(NC1CC(O)CC(n2c(-c3ccccc3F)nc3cnc(-c4nnc[nH]4)cc32)C1)c1ncc(Cl)s1 (stereo not shown) [Example 115]", "pIC50": "> 6.30"}
{"compound": "N#CCc1ccccc1-c1nc2cnc(-c3nc[nH]n3)cc2n1[C@@H]1CCC[C@H](NC(=O)c2ncc(Cl)s2)C1 [Example 355]", "pIC50": "> 6.30"}
{"compound": "Cn1ccc(Oc2cc3c(cn2)nc(-c2ncccc2F)n3[C@@H]2CCC[C@H](NC(=O)c3ncc(C(F)F)s3)C2)n1 [Example 268]", "pIC50": "< 5.30"}
{"compound": "CC(C)Cc1nc2cnc(-c3cccc4ccoc34)cc2n1[C@@H]1CCC[C@H](NC(=O)c2ncc(Cl)s2)C1 [Example 327]", "pIC50": "5.30 to 6.00"}
{"compound": "Cn1nccc1-c1nc2cnc(-n3ccnn3)cc2n1[C@@H]1CCC[C@H](NC(=O)c2ncc(C(F)F)s2)C1 [Example 44]", "pIC50": "< 5.30"}
{"compound": "CO[C@H]1C[C@H](NC(=O)c2ccc(Cl)s2)C[C@H](n2c(CC(C)C)nc3cnc(-c4ncccn4)cc32)C1 (single isomer, unassigned) [Example 437]", "pIC50": "> 6.30"}
{"compound": "CS(=O)(=O)N1C[C@H](NC(=O)c2ncc(Cl)s2)C[C@H](n2c(-c3ccccc3F)nc3cnc(-c4nc[nH]n4)cc32)C1 [Example 460]", "pIC50": "> 6.30"}
{"compound": "O=C(N[C@@H]1C[C@@H](O)C[C@H](n2c(-c3ccccc3F)nc3cnc(-n4nccn4)cc32)C1)c1ncc(C(F)F)s1 (single isomer, unassigned) [Example 107]", "pIC50": "> 6.30"}
{"compound": "O=C(N[C@H]1CCC[C@@H](n2c(C3CCCCO3)nc3cnc(-c4nc[nH]n4)cc32)C1)c1ncc(Cl)s1 (single isomer, unassigned) [Example 90]", "pIC50": "> 6.30"}
{"compound": "Cc1csc(-c2cc3c(cn2)nc(CC(C)C)n3[C@@H]2CCC[C@H](NC(=O)c3ncc(Cl)s3)C2)n1 [Example 326]", "pIC50": "> 6.30"}
{"compound": "O=C(N[C@H]1CCC[C@@H](n2c(N3CCCCC3)nc3cnc(-c4nc[nH]n4)cc32)C1)c1ccc(Cl)s1 [Example 372]", "pIC50": "> 6.30"}
